Biological target: ΔF508-CFTR (Homo sapiens, UniProt P13569, DEL508-508)
Construct: host or cells: CFBE41o-, doxycycline-inducible
Sequence (P13569 with tags, fused parts or gaps DEL508-508): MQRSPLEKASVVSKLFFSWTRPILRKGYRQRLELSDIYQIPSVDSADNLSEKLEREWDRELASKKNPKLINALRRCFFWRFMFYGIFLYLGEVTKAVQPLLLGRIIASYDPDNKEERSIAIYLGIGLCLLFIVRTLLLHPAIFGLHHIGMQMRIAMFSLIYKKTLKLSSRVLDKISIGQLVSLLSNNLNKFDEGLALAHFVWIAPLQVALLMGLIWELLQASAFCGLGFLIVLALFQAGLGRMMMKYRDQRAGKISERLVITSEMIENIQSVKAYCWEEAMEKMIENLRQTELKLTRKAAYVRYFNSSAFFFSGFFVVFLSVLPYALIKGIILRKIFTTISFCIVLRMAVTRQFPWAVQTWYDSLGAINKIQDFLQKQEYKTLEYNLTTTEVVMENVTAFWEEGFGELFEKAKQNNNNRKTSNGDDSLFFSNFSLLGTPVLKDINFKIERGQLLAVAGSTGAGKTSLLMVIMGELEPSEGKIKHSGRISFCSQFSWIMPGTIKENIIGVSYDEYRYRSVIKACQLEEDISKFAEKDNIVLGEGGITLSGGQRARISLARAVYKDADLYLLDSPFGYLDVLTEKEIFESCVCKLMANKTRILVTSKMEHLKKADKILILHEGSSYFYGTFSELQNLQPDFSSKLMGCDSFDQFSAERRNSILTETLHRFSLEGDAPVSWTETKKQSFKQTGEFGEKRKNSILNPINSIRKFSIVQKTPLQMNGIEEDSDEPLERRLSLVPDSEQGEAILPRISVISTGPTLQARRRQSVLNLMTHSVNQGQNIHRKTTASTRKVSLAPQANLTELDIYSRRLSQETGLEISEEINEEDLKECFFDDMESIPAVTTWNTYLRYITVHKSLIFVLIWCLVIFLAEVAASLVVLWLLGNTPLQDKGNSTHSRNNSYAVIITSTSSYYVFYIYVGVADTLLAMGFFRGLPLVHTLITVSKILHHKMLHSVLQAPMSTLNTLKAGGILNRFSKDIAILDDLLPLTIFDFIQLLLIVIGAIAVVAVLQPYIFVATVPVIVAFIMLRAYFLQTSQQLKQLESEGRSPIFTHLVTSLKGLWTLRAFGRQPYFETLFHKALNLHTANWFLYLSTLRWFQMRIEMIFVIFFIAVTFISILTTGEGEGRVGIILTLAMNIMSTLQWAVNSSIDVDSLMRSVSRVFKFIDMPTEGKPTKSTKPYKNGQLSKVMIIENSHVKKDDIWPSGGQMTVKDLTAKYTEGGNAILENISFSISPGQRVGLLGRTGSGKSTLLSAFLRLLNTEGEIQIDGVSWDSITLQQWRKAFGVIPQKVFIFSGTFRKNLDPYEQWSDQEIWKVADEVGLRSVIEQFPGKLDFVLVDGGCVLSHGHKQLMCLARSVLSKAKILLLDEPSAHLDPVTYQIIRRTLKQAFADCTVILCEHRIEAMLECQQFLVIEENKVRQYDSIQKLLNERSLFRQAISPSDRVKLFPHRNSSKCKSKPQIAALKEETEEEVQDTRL
Assay: CFTR cell surface levels using HRP-tagged ΔF508-CFTR expressing CFBE cells, in the presence of a co-corrector
Type: cell-based
Conditions: HRP-tagged ΔF508-CFTR CFBE cells, in the presence of 3 μM co-corrector
Label yes when % Activation is strictly below 500%; otherwise label no.

In the record for `CS(=O)(=O)NC(=O)c1cc(N2CCC(CCN3CCOCC3)CC2)c2c(C3CCC3)nn(-c3ccccc3)c2n1` , is % Activation less than 500%?
no

Dear colleague, could you confirm whether % Activation of `CN(C(=O)c1cc(N2CCC(N3CCOCC3)CC2)c2c(C3CCC3)nn(-c3ccccc3)c2n1)S(C)(=O)=O` falls below 500%? Thanks.
yes

In the record for `CC(C)c1nn(-c2ccc(F)cc2)c2nc(C(=O)NS(C)(=O)=O)cc(OCCCN3CCOCC3)c12` , is % Activation less than 500%?
yes

I wonder whether `CS(=O)(=O)NC(=O)c1cc(OCC2CCOCC2)c2c(C3CCC3)nn(-c3ccc(F)cc3)c2n1` has % Activation below 500%. Can you tell?
yes

Say whether its % Activation is strictly beneath 500%. Entry: `CC(C)Oc1nn(C2CCCCC2)c2nc(C(=O)NS(=O)(=O)N(C)C)cc(-c3ccc(C(=O)N4CCC(N(C)C)CC4)cc3)c12`
yes

hey, is % Activation for `O=C(NS(=O)(=O)N1CCOCC1)c1cc(OCC2CCOCC2)c2c(C3CCC3)nn(-c3ccccc3)c2n1` lower than 500% or not?
yes

# strict comparison: is reported % Activation < 500%? input = `COCC1CCN(c2cc(C(=O)NS(=O)(=O)CCC(=O)OC)nc3c2c(C2CCC2)nn3-c2ccccc2)CC1`
no

Consider the molecule `COCC1CCN(c2cc(C(=O)NS(=O)(=O)N3CCC(N4CCC[C@@H]4COC)CC3)nc3c2c(C2CCC2)nn3-c2ccccc2)CC1` . Is its % Activation strictly less than 500%?
yes

# TODO verify % Activation < 500% strictly for this molecule: `COCC1CCN(c2cc(C(=O)NS(=O)(=O)N3CCC(N4CCC[C@H]4COC)CC3)nc3c2c(C2CCC2)nn3-c2ccccc2)CC1`
yes

API: query returns whether the molecule falls strictly under 500% in % Activation. Query: `CCN1CCN(Cc2ccc(-c3cc(C(=O)NS(C)(=O)=O)nc4c3c(OC(C)C)nn4C3CCCCC3)cc2)CC1`
yes

Quick check: does `CS(=O)(=O)NC(=O)c1cc(N2CCC(N3CCOCC3)CC2)c2c(C3CCC3)nn(-c3cccc(F)c3)c2n1` have % Activation under 500%?
yes

====

Can you tell me % Activity at 3 μM (AUC**) for the items I'm about to list?
Target: CFTR ΔF508 (Homo sapiens, UniProt P13569, DEL508-508)
Construct: bronchial epithelial cells isolated from CF patients homozygous for the CFTR ΔF508 mutation; McGill University; Asterand; University of North Carolina hAEC-CF; host or cells: primary human bronchial epithelial cells from CF patients homozygous for ΔF508, differentiated at air-liquid interface
Assay: Chronic TECC assay, primary bronchial epithelial cells of CF patients homozygous for CFTR ΔF508 (corrector, co-corrector and potentiator)
Format: cell-based
Details: chronic TECC; test compound at 3 μM; AUC = full area under the curve upon forskolin stimulation
Just the number plus its unit, please.

Given `CC(C)Oc1nccc(-n2nc(C3CCC3)c3c(N4CCC(N5CCOCC5)CC4)cc(C(=O)NS(=O)(=O)N(C)C)nc32)n1` , state its recorded % Activity at 3 μM (AUC**).
256.6667%

Any idea what % Activity at 3 μM (AUC**) was measured for `CC(C)N1CCN(C2CCN(c3cc(C(=O)NS(=O)(=O)N(C)C)nc4c3c(C3CCC3)nn4-c3ccc(F)cc3)CC2)CC1` ?
347%

I have this compound here, `CCOC(=O)N1CCN(C2CCN(c3cc(C(=O)NS(=O)(=O)N(C)C)nc4c3c(C3CCC3)nn4-c3ccc(F)cc3)CC2)CC1` , and I need its recorded % Activity at 3 μM (AUC**).
220.4586%

Query (compound): `COC1CCN(C2CCN(c3cc(C(=O)NS(=O)(=O)N4CCC4)nc4c3c(C3CCC3)nn4-c3ccc(F)cc3)CC2)CC1` ; field requested: % Activity at 3 μM (AUC**)
237.1158%

Quick one: % Activity at 3 μM (AUC**) for CN(C)S(=O)(=O)NC(=O)c1cc(C2CCC(N3CCOCC3)CC2)c2c(C3CCC3)nn(-c3ccccc3)c2n1 (stereo not shown) ?
224.5026%

What does the record list as % Activity at 3 μM (AUC**) for `COCC1CCN(c2cc(C(=O)NS(C)(=O)=O)nc3c2c(C(C)C)nn3-c2cc(C)nc(C)c2)CC1` ?
226.54%

Any idea what % Activity at 3 μM (AUC**) was measured for `COCC1CCN(c2cc(C(=O)NS(=O)(=O)N3CCN(C4CC4)CC3)nc3c2c(C2CCC2)nn3-c2ccc(F)cc2)CC1` ?
306.6667%

====

Hi there, I'd appreciate the recorded pEC50 for every entry that follows.
Target: ΔF508-CFTR (Homo sapiens, UniProt P13569, DEL508-508)
Construct: host or cells: CFBE41o-, doxycycline-inducible
Test: CFTR cell surface levels using HRP-tagged ΔF508-CFTR expressing CFBE cells, in the presence of a co-corrector
Assay type: cell-based
Settings: HRP-tagged ΔF508-CFTR CFBE cells, in the presence of 3 μM co-corrector; read-out: EC50
Keep in mind that pEC50 stands for -log10 of concentration in molar terms.

Kindly state the measured pEC50 obtained for `Cc1nn(C2CCCCC2)c2nc(C(=O)NS(C)(=O)=O)cc(-c3cnc(N(C)C)nc3)c12` with ΔF508-CFTR (Homo sapiens, UniProt P13569, DEL508-508).
5.70

Query for ΔF508-CFTR (Homo sapiens, UniProt P13569, DEL508-508): what pEC50 does the record show for `COCC1CCN(c2cc(C(=O)NS(=O)(=O)N3CCN(C)CC3)nc3c2c(C2CCC2)nn3-c2ccccc2)CC1` ?
6.80

Give ΔF508-CFTR (Homo sapiens, UniProt P13569, DEL508-508) pEC50 for `CCS(=O)(=O)NC(=O)c1cc(-c2ccc(N(C)C)nc2)c2c(C(C)C)nn(-c3cccc(N4CCOCC4)c3)c2n1`
6.63

Give the reported pEC50 for `COCC1CCN(c2cc(C(=O)NS(C)(=O)=O)nc3c2c(C2CCC2)nn3-c2ccc(F)cc2)CC1` (system: ΔF508-CFTR (Homo sapiens, UniProt P13569, DEL508-508)).
7.61

Please state recorded pEC50 (tested on ΔF508-CFTR (Homo sapiens, UniProt P13569, DEL508-508)) of `COCC1CCN(c2cc(C(=O)NS(C)(=O)=O)nc3c2c(C(C)C)nn3-c2ccnc(N3CCOCC3)c2)CC1`
6.65

// map `COCCS(=O)(=O)NC(=O)c1cc(OCC2(C)COC2)c2c(C3CCC3)nn(-c3ccccc3)c2n1` to recorded pEC50 (system: ΔF508-CFTR (Homo sapiens, UniProt P13569, DEL508-508))
7.01

Form field - read-out: pEC50; system: ΔF508-CFTR (Homo sapiens, UniProt P13569, DEL508-508); submitted item: `CC(C)c1nn(C2CCCCC2)c2nc(C(=O)NS(C)(=O)=O)cc(-c3ccc(N4CCC(C)(C#N)CC4)nc3)c12`
6.41

Record `CN(C(=O)c1cc(N2CCC(CN3CCCC3)CC2)c2c(C3CCC3)nn(-c3ccccc3)c2n1)S(C)(=O)=O` : what is its pEC50 with ΔF508-CFTR (Homo sapiens, UniProt P13569, DEL508-508)?
6.98

Provide the documented pEC50 with ΔF508-CFTR (Homo sapiens, UniProt P13569, DEL508-508) as the system for `CC(C)c1nn(-c2ccc(F)cc2)c2nc(C(=O)NS(C)(=O)=O)cc(N3CCC(N4CCCCC4)CC3)c12`
6.14

Form field - read-out: pEC50; system: ΔF508-CFTR (Homo sapiens, UniProt P13569, DEL508-508); submitted item: `CN(C)S(=O)(=O)NC(=O)c1cc(N2CCC(N3CCOCC3)CC2)c2c(C3CCC3)nn(-c3cccc(OC(F)F)c3)c2n1`
7.60

Item: COCCOCC1(F)CCCN(c2cc(C(=O)NS(C)(=O)=O)nc3c2c(C2CCC2)nn3-c2ccccc2)C1 (centres unmarked) Test system: ΔF508-CFTR (Homo sapiens, UniProt P13569, DEL508-508) Read-out: pEC50 Value: ?
6.39

Field: pEC50 (ΔF508-CFTR (Homo sapiens, UniProt P13569, DEL508-508)). Entry: `CC(C)Oc1nn(C2CCCCC2)c2nc(C(=O)NS(C)(=O)=O)cc(-c3ccc(CN4CCC(N(C)C)CC4)cc3)c12`
6.30

Item `O=C(NS(=O)(=O)N1CC(F)C1)c1cc(N2CCC(N3CCOCC3)CC2)c2c(C3CCC3)nn(-c3ccc(F)cc3)c2n1` with ΔF508-CFTR (Homo sapiens, UniProt P13569, DEL508-508) - pEC50?
7.05

Query for ΔF508-CFTR (Homo sapiens, UniProt P13569, DEL508-508): what pEC50 does the record show for `CN(C)S(=O)(=O)NC(=O)c1cc(N2CCC(N3CCOCC3)CC2)c2c(C3CCC3)nn(-c3ccnc(OC(F)F)c3)c2n1` ?
7.06
